Biological target: T1, muCDH19(44-247)::huCDH19(250-364)::muCDH19(363-770) with Flag tag (construct F, Hu EC3) (human/mouse chimera)
T1 construct: leader left out; the entry starts at residue 44; also called C137911
Test: flow cytometry, transfected 293T cells
Attribute Measured: binding result

Could you share which binding result value was measured for hu anti-<huCDH19> 4B10 (Ab ID 13590) (antibody, V domains shown, huIgG1z / huKLC; Bin 4) VH: QVQLVESGGGVVQPGRSLRLSCAASGFTFSSYDMHWVRQAPGKGLEWVAVISYDGTNEYYADSVKGRFTISRDTSKNTLYLQMNSLRAEDTAVYYCARERYFDWSFDYWGQGTLVSVSS VL: EIVLTQSPGTLSLSPGERATLSCRASQSVSNTYLAWYHQRPGQAPRLLIYGASSRATGIPDRFSGSGSGTDFALTISSLEPEDFAVYYCQQYSNSWTFGQGTKVEIKR ? binds
